Provide the recorded pIC50 for the entries that follow.
tested on: M. tuberculosis H37Rv growth inhibition with meropenem; assay: dose response, H37Rv, with and without meropenem (AID 434987);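 also: growth over 7 days at 37 °C before Alamar Blue read on day 9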; conditions: M. tuberculosis H37Rv growth inhibition; measured here: IC50 without meropenem
pIC50: −log10 of the molar value.

COMPOUND: CCc1ccc(NC(=S)Nc2ccc3cn[nH]c3c2)cc1
pIC50: < 4.00

I need pIC50 for every entry listed below, if you could help.
1. CCN(CC)C(=O)C1CCCN(c2ccc([N+](=O)[O-])cc2/C=N/NC(=O)c2cccc(O)c2)C1 (stereo unspecified)
2. CCCc1cc(NC(=O)COC(=O)c2nccnc2N)n(-c2ccccc2)n1
3. Cc1ccc(C(=O)NCCc2nnc3ccc(SCC(=O)Nc4ccccc4C)nn23)cc1
4. CCOc1cc(/C=N\NC(=O)c2ccc(NC(=O)C(C)(C)C)cc2)ccc1OC(=O)c1ccc(C)cc1
5. O=C(CCSc1nnc(-c2ccncc2)o1)Nc1ccccc1Cl

Marked response:
4.33
4.16
< 4.00
< 4.00
< 4.00
